Sourced from the supplement of paper PMC4466140

molecular target: SpAbp1-D1; assay: SPOT peptide array binding signal intensity (averaged, normalized) (arbitrary units (background-subtracted, floor 0; scale differs between SH3 domains)); higher = stronger binding of the SH3 domain to the peptide
reportedMetric: SPOT peptide array binding signal intensity
Respond with the number and no other words.

The cases that follow already have their SPOT peptide array binding signal intensity on record.
binder | resultNumber
RFKRHRLEFPFNESE | 419
TSFKGRPKPPKTLKH | 174
RRSKSLPTTPGIRSG | 2040
APERAVPILPPRNNV | 5.5
ILARAILTIPRVLDK | 7.5

# get_value(readout='SPOT peptide array binding signal intensity', item= FPPKRKPLLRPQRSD )
874

// next record AERNYAPRLPRRETS
50.5

Check NPLPKEPRLPKRKVA too.
86

Item: KRRTSLFPWLHKPGI
420

Also need GAGERPRLVPRPINV , thanks.
11

Continue with EQEEIAPSLPSRNSI
1

Repeat with RTRRRPPPPPIPSTQ
505

Query KRKRRLPVSEDTNTK next
214

Could you do the same for KIRRSSLMIPNPQQF , please?
95

Item: ERPKRRAPPPVPKKP
280

// same read-out, input: IAPIPMPKPNPTHIS
8.5

Same question for FSRRQSMDIPSKNRN please.
118

Now consider RSLRKRPTSPSISGS .
477

Param item: APPPPPRRATPEKKP
165

Then VQQDSLPKLPFRSWG ?
25

Next up: NFLRLLIGLPSQNEL
1

Now consider VYTRTAFQIPGDDKI .
1
